Assay: chemical genetic growth profiling, strain panel (AID 1159580);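 note: tested at 20 µM; growth read once vehicle control cultures reached saturation at 30 °C; lower values mean less growth of the strain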
Conditions: S. cerevisiae deletion strains, growth OD, locus YPL241C, strain CIN2
Out of some 5,500 compounds screened, about 2,000 (36%) were called active. Another 18% or so got no clear call; they are omitted. Cut-off read from the data, not from the text of the source: active = normalized growth mostly below about 0.91 (no sharp cut-off); inconclusive = no clear call, values can overlap the other calls; inactive = mostly above about 0.92. The list shows a part of the results.
Outcome codes: y for active, n for inactive

# COMPOUND, CLASS NAME
rows = [
    ("O=S(=O)(c1ccc(Cl)cc1)N1CCN(Cc2ccccc2)CC1", "n"),
    ("O=C(/C=C/c1ccccc1)c1c(O)cc(O)cc1O", "n"),
    ("OC[C@H]1O[C@@H](Oc2ccc(O)cc2)[C@H](O)[C@@H](O)[C@@H]1O", "n"),
    ("CNC(=O)Oc1cccc2c1OC(C)(C)C2", "n"),
    ("Cc1ccc(S(=O)(=O)N2CCC(C(c3ccccc3)c3ccccc3)CC2)cc1", "n"),
    ("COc1ccccc1C1CCN(c2ncnc3scc(-c4ccccc4)c23)CC1", "n"),
    ("Cc1ccc(NC(=S)C(C#N)C(=O)N2CCCC2)c(C)c1 (stereo unspecified)", "n"),
    ("COC(=O)CC1C(C)(C)C(=O)C2CC3(O)C4=CC(=O)OC(c5ccoc5)C4(C)CCC3C1(C)C2=O (stereo unspecified)", "n"),
    ("Cc1cc(NC(=O)Nc2cccc(C(F)(F)F)c2)n(C)n1", "n"),
    ("O=C(NNC(=S)NC1CC2C=CC1C2)c1cccnc1 (stereo unspecified)", "n"),
    ("O=C(/C=C/c1ccccc1)c1ccc(O[C@@H]2O[C@H](CO)[C@@H](O)[C@H](O)[C@H]2O)cc1O", "y"),
]

* * *

Test: chemical genetic growth profiling, strain panel (AID 1159580);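 note: tested at 20 µM; growth read once vehicle control cultures reached saturation at 30 °C; lower values mean less growth of the strain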
Conditions: S. cerevisiae deletion strains, growth OD, locus YNL233W, strain BNI4
About 2,000 (36%) of roughly 5,500 compounds were called active. About 18% were inconclusive and are not listed. Rule as the data show it: active = normalized growth mostly below about 0.91 (no sharp cut-off); inconclusive = no clear call, values can overlap the other calls; inactive = mostly above about 0.92. This is one part of the list.
Classes used: active, inactive

# COMPOUND, CLASS NAME
measured = [
    ("COc1cc2cccc(OC)c(=O)c2c(OC)c1OC", "inactive"),
    ("CCCC(=O)Nc1ccc(OCC(O)CNC(C)C)c(C(C)=O)c1 (stereo not given)", "inactive"),
    ("COC(=O)C[C@H]1C(C)(C)[C@@H](OC(C)=O)[C@@H]2CC3=C4CC(=O)O[C@@H](c5ccoc5)[C@]4(C)CCC3[C@@]1(C)C2=O (stereo not given in full)", "inactive"),
    ("Cc1cc(O)c2c(c1)C(=O)c1cc(O)cc(O)c1C2=O", "active"),
    ("Cc1c(NC(C)C)c(=O)n(-c2ccccc2)n1C", "inactive"),
    ("CCCCN(CC)c1c([N+](=O)[O-])cc(C(F)(F)F)cc1[N+](=O)[O-]", "inactive"),
    ("CNC(=O)Oc1ccccc1OC(C)C", "inactive"),
    ("COC(=O)C(O)[C@H]1C(C)(C)[C@@H](OC(C)=O)[C@@H]2CC3=C4CC(=O)O[C@@H](c5ccoc5)[C@]4(C)CCC3[C@@]1(C)C2=O (stereo not given in full)", "inactive"),
    ("CC(C)OC(=O)Nc1cccc(Cl)c1", "inactive"),
    ("C[N+]1(C)CCCC(OC(=O)C(O)(c2ccccc2)c2ccccc2)C1 (stereo not given)", "inactive"),
]
